- experiment notes: Cell viability, MTT-based colorimetric assay
- reported conditions: human, non-infected human foreskin fibroblasts (HFFs), cell viability after 72 h
Where a name gives a salt, the structure may show the parent alone.
measure name: CC50 at 72 h

Tell me measured CC50 at 72 h for CC[C@H]1CN2CCc3cc(OC)c(OC)cc3[C@@H]2C[C@@H]1C[C@H]1NCCc2cc(OC)c(OC)cc21 [emetine, emetine dihydrochloride hydrate] please. 8 µM

---

- experiment notes: in vivo
- Set-up: species or system BALB/c mice
- reported conditions: male, mouse, in vivo; single oral 0.1 mg/kg, BALB/c mice; read-out: calculated half-life (converted)
Counter-ions that a name gives are not always drawn.
measure name: half-life
Respond with a number, then the unit of measure.

Tell me measured half-life for CC[C@H]1CN2CCc3cc(OC)c(OC)cc3[C@@H]2C[C@@H]1C[C@H]1NCCc2cc(OC)c(OC)cc21 [emetine, emetine dihydrochloride hydrate] please. 35 h
